Provide the reported Ki of each item.
test system: WDR5 (Homo sapiens (Human))
protocol summary: TR-FRET binding assay (displacement of 10mer-Thr-FAM probe from WDR5)
test parameters: read-out: Ki for Inhibition of WDR5 by TR-FRET assay; TR-FRET, 10mer-Thr-FAM probe, WDR5-His tag 2 nM, pH 7.0
Provide only the numeric value, understood in nM.

Input `COc1cnccc1-c1cc(Cn2ccn(C)c2=N)cc(C(=O)NCc2ccc(Cl)c(C)c2)c1` . Output Ki: 2.5

Short answer for COc1cc(OC)cc(C(C)NC(=O)c2cc(Cn3ccn(C)c3=N)cc(-c3ccc(F)cc3C)n2)c1 (stereo not drawn) : Ki was 3.57

---

test system: WDR5 (Homo sapiens (Human), UniProt P61964)
protocol summary: TR-FRET binding assay (displacement of 10mer-Thr-FAM probe from WDR5)
test parameters: read-out: Ki for Inhibition of WDR5 by TR-FRET assay; TR-FRET, 10mer-Thr-FAM probe, WDR5-His tag 2 nM, pH 7.0
pKi: −log10 of the molar value.
Would you mind telling me the reported pKi of each entry?

pKi reading for `CCn1cc(-c2cc(CN3CCCC3=N)cc(C(=O)N[C@H](c3ccc(F)c(Cl)c3)C3CC3)c2)c(C(F)(F)F)n1` : > 10.00

// recorded pKi for `Cc1cc([C@@H](NC(=O)c2cc(Cn3ccn(C)c3=N)cc(-c3ccc(F)cc3C(F)F)c2)C2CC2)ccc1F` : > 10.00

// field: pKi; key: `Cc1cc([C@@H](NC(=O)c2cc(Cn3ccccc3=N)cc(-c3cn(C)nc3C(F)(F)F)c2)C2CC2)ccc1F` ; value = > 10.00

---

test system: WDR5 (Homo sapiens (Human), UniProt P61964)
protocol summary: TR-FRET binding assay (displacement of 10mer-Thr-FAM probe from WDR5)
test parameters: read-out: Ki for Inhibition of WDR5 by TR-FRET assay; TR-FRET, 10mer-Thr-FAM probe, WDR5-His tag 2 nM, pH 7.0
experimental readout: Ki

Looking up `Cn1ccn(Cc2cc(C(=O)N[C@H](c3ccc(F)c(F)c3)C3CC3)cc(-c3cccnc3C(F)(F)F)c2)c1=N` , I see its Ki listed as < 0.1 nM

# Ki (compound: `CCn1cc(-c2cc(Cn3ccoc3=N)cc(C(=O)N[C@H](c3ccc(F)c(Cl)c3)C3CC3)c2)c(C(F)(F)F)n1` ) is < 0.1 nM

Just so you know, measured Ki for `Cn1cc(-c2cc(CN3CCOC3=N)cc(C(=O)N[C@H](c3ccc(Cl)c(Cl)c3)C3CC3)c2)c(C(F)(F)F)n1` came out at < 0.1 nM

---

System: MV4:11 human cancer cell lines
protocol summary: Anti-proliferative activity, CellTiter-Glo viability assay, 7 day protocol
Assay type: cell-based
test parameters: Homo sapiens, MV4-11, 168 h, MV4:11 cells, 7 day incubation, read-out: GI50 on cellular proliferation of MV4:11 human cancer cell lines
experimental readout: GI50

Recorded GI50 (molecule CC(C)n1cc(-c2cc(CN3CCN(C)C3=N)cc(C(=O)N[C@H](c3ccc(F)c(F)c3)C3CC3)c2)c(C(F)(F)F)n1 [Example 216] ): < 100 nM

GI50 reported for this molecule Cc1cc(CNC(=O)c2cc(Cn3ccn(C)c3=N)cc(-c3cccnc3C)c2)ncn1 [Example 38] : 6000 nM

Recorded GI50 (molecule CCn1cc(-c2cc(Cn3ccoc3=N)cc(C(=O)N[C@H](c3ccc(Cl)c(Cl)c3)C3CC3)c2)c(C(F)(F)F)n1 [Example 280] ): < 100 nM

Reported GI50 for COc1cc(CNC(=O)c2cc(Cn3ccn(C)c3=N)cc(-c3ccc(F)cc3OC(F)F)c2)cc(OC)c1 [Example 62] was 800 nM

According to the records, this molecule Cc1ccnc([C@@H](NC(=O)c2cc(Cn3ccn(C)c3=N)cc(-c3ccc(F)cc3C(F)(F)F)c2F)C2CC2)c1 [Example 120] displays GI50 of 220 nM

---

test system: WDR5 (Homo sapiens (Human))
protocol summary: TR-FRET binding assay (displacement of 10mer-Thr-FAM probe from WDR5)
test parameters: read-out: Ki for Inhibition of WDR5 by TR-FRET assay; TR-FRET, 10mer-Thr-FAM probe, WDR5-His tag 2 nM, pH 7.0
Assign pKi to each entry below.
// pKi: -log10(molar conc.)

# lookup: Cc1cc(CNC(=O)c2cc(Cn3ccn(C)c3=N)cc(-c3c[nH]c(=O)cc3C)c2)ccc1Cl [Example 83] on WDR5 (Homo sapiens (Human)), pKi = 8.15

Note to self: pKi of COc1ccnc([C@H](NC(=O)c2cc(Cn3ccn(C)c3=N)cc(-c3ccc(F)cc3C)c2)C2CC2)c1 [Example 93] with WDR5 (Homo sapiens (Human)) was 8.72

Assay WDR5 (Homo sapiens (Human)), sample Cc1ccnc(C(NC(=O)c2cc(Cn3ccn(C)c3=N)cc(-c3cccnc3C)c2)C2CC2)c1 (stereo not shown) [Example 37] , pKi read: 9.40

Lab note: compound Cc1cc([C@@H](NC(=O)c2cc(CN3C[C@@H](C)OC3=N)cc(-c3cccnc3C(F)(F)F)c2)C2CC2)ccc1F [Example 297] tested on WDR5 (Homo sapiens (Human)); recorded pKi was 8.64

---

For each record, write down the corresponding Ki.
test system: WDR5 (Homo sapiens (Human), UniProt P61964)
protocol summary: TR-FRET binding assay (displacement of 10mer-Thr-FAM probe from WDR5)
test parameters: read-out: Ki for Inhibition of WDR5 by TR-FRET assay; TR-FRET, 10mer-Thr-FAM probe, WDR5-His tag 2 nM, pH 7.0

Looking up Cc1cc([C@@H](NC(=O)c2cc(CN3CCOC3=N)cc(-c3cn(C(C)C)nc3C(F)(F)F)c2)C2CC2)ccc1F [Example 275] , I see its Ki listed as < 100 pM

Field Ki (entry Cc1cc([C@@H](NC(=O)c2cc(CN3CCOC3=N)cc(-c3cn(C)nc3C(F)(F)F)c2)C2CC2)ncc1F [Example 300] ) reads < 100 pM

The reported Ki of the compound COc1cc(CNC(=O)c2cc(Cn3ccn(C)c3=N)cc(-c3ccc(F)cc3C(F)(F)F)c2F)cc(OC)c1 [Example 108] was < 100 pM

response.value for Cc1cc([C@@H](NC(=O)c2cc(Cn3ccn(C4CC4)c3=N)cc(-c3cn(C)nc3C(F)(F)F)c2)C2CC2)ccc1F [Example 142] (field: Ki) = < 100 pM

Cc1cc([C@@H](NC(=O)c2cc(CN3CCCC3=N)cc(-c3cn(C(C)C)nc3C(F)(F)F)c2)C2CC2)ccc1F [Example 336] yielded Ki of < 100 pM

---

Test system: MV4:11 human cancer cell lines
protocol summary: Anti-proliferative activity, CellTiter-Glo viability assay, 7 day protocol
Type: cell-based
test parameters: Homo sapiens, MV4-11, 168 h, MV4:11 cells, 7 day incubation, read-out: GI50 on cellular proliferation of MV4:11 human cancer cell lines
Would you mind telling me the reported GI50 of each entry?
State the answer as a number, implicitly in nM.

For record Cc1cc([C@H](C)NC(=O)c2cc(Cn3ccn(C)c3=N)cc(-c3ccc(F)cc3C(F)(F)F)c2F)ccc1F [Example 172] the listed GI50 is 160

Lab note: measured GI50 of N=C1OCCN1Cc1cc(C(=O)N[C@H](c2ccc(Cl)c(F)c2)C2CC2)cc(-c2ccc(F)cc2Cl)c1 [Example 301] was 270

For record Cc1cc([C@@H](NC(=O)c2cc(Cn3ccn(C)c3=N)cc(-c3cccnc3C(F)(F)F)c2F)C2CC2)ccc1F [Example 131] the listed GI50 is 140

// GI50 lookup, molecule = Cc1cc([C@@H](NC(=O)c2cc(CN3CCOC3=N)cc(-c3ccc(F)cc3OC(F)F)c2)C2CC2)ccc1F [Example 273] , result: 140

The molecule identified as Cc1cc([C@@H](NC(=O)c2cc(Cn3ccn(C)c3=N)cc(-c3ccc(F)cc3C#N)c2)C2CC2)ccc1F [Example 185] registered its GI50 at 610

Cc1ccnc(C(NC(=O)c2cc(Cn3ccn(C)c3=N)cc(-c3ccc(F)nc3C)c2)C2CC2)c1 (stereo not drawn) [Example 3] yielded GI50 of 550

Sample Cc1cn(Cc2cc(C(=O)N[C@H](c3ccc(F)c(C)c3)C3CC3)cc(-c3cccnc3C(F)(F)F)c2)c(=N)o1 [Example 250] ; GI50 observed: 570

Per the records, this molecule ( COc1cc(OC)cc(C(NC(=O)c2cc(Cn3ccn(C)c3=N)cc(-c3ccc(F)cc3OC(F)F)c2)C2CC2)c1 (stereo not drawn) [Example 63] ) has GI50 equal to 460

COc1ccnc(CNC(=O)c2ccc(F)c(Cn3ccn(C)c3=N)c2)c1 [Example 366] yielded GI50 of 30000

Kindly note the recorded GI50 for N=C1SCCN1Cc1cc(C(=O)N[C@H](c2ccc(Cl)c(Cl)c2)C2CC2)cc(-c2ccc(F)cc2OC(F)F)c1 [Example 309] , which is 960
